Experiment: clinical
Conditions: human, plasma, oral, 10 mg, AUC(0,t) Adjusted geometric mean, 10 mg fasted
property name: AUC(0-t) (ng·h/mL)

> print(dat)
                                smiles.text  endpoint.result
1  COc1ccc(-n2nc(C(N)=O)c3c2C(=O)N(c2ccc(N4CCCCC4=O)cc2)CC3)cc1             1730

====

Test: clinical
Details: human, plasma, po, 5 mg
property name: AUC(0-t) (ng·h/mL)

> print(dat)
                                smiles.text  endpoint.result
1  COc1ccc(-n2nc(C(N)=O)c3c2C(=O)N(c2ccc(N4CCCCC4=O)cc2)CC3)cc1              977

Data provenance is paper PMC3558798.
